Tested on: HeLa
Assay Name: MALAT1 nuclear FISH intensity, robust Z-score vs DMSO; higher = more nuclear MALAT1 lncRNA, active = -3 or less
Particulars: 10 µM; 6 h
Label Met when MALAT1 nuclear FISH intensity is at or above -0.6; anything below gets Not met.

Use the examples below as a reference point.
Structure String: CC(C)(O)[C@H]1O[C@H]2CC[C@@]3(C)[C@@](O)(CC[C@H]4Cc5c([nH]c6ccccc56)[C@@]43C)C2=CC1=O
Discrete Label: Met
--
Structure String: CCCCC/C=C\C[C@@H](/C=C/C=C\C/C=C\CCCC(=O)O)OO
Discrete Label: Met
--
Structure String: O=C(NCCc1ncc(C(F)(F)F)cc1Cl)c1ccccc1C(F)(F)F
Discrete Label: Not met

Query: Record COc1[nH]c(=O)c(C(=O)[C@@H](C)C[C@H](C)[C@@H](Cl)CCl)c(O)c1OC ; criterion: MALAT1 nuclear FISH intensity no lower than -0.6. Met?
Response: Met

Query: Check the entry CC1=CC(=O)c2c(O)cccc2C1=O : does MALAT1 nuclear FISH intensity equal or exceed -0.6?
Response: Not met

Query: I'd appreciate it if you could say whether c1ccc(C2CC2)c(OCC2=NCCN2)c1 has MALAT1 nuclear FISH intensity at least equal to -0.6.
Response: Not met

Query: Hi team, for C#CCN(C)[C@H](C)Cc1ccccc1 , is the recorded MALAT1 nuclear FISH intensity at or above -0.6?
Response: Not met

Query: Is it the case that C[C@H]1C(=O)O[C@@H]2CCN3CC=C(COC(=O)[C@](C)(O)[C@]1(C)O)[C@H]23 has MALAT1 nuclear FISH intensity reaching or exceeding -0.6?
Response: Not met

Query: Would you say CCCCCCC(=O)CCCCCC/C=C/C[C@@H](O)[C@H](O)[C@@](N)(CO)C(=O)O shows MALAT1 nuclear FISH intensity at minimum -0.6?
Response: Met

* * *

Test system: HeLa
Assay Name: nuclear count per well, robust Z-score vs DMSO; higher = more cells (less toxicity)
Particulars: 10 µM; 6 h
Counter-ions that a name gives are not always drawn.
Classes (nuclear count per well): lower band = under -0.06, central band = from -0.06 up to 0.5, upper band = 0.5 and over

Compound: CN1C[C@H](C(=O)N[C@]2(C)O[C@@]3(O)[C@@H]4CCCN4C(=O)[C@H](Cc4ccccc4)N3C2=O)C=C2c3cccc4[nH]cc(c34)C[C@H]21 [Ergotamine Tartrate]
Experimental Target: HeLa
Discrete Label: central band
--
Compound: N[C@@H](Cc1ccc(N(CCCl)CCCl)cc1)C(=O)O [Melphalan]
Experimental Target: HeLa
Discrete Label: upper band
--
Compound: CN1[C@@H]2C[C@@H](OC(=O)[C@H](CO)c3ccccc3)C[C@H]1[C@@H]1O[C@@H]12
Experimental Target: HeLa
Discrete Label: upper band
--
Compound: CO[C@H](C/C=C\C=C\CC/C=C/C[C@H](C)/C=C/C(=C\C(=O)O)CC(=O)O)/C(C)=C\C=C(/C)C(=O)O [Bongkrekic acid]
Experimental Target: HeLa
Discrete Label: lower band
--
Compound: O=c1[nH]c2ccccc2n1C1CCN(CCCC(c2ccc(F)cc2)c2ccc(F)cc2)CC1 [Pimozide]
Experimental Target: HeLa
Discrete Label: central band

Query: Classify this compound: COc1[nH]c(=O)c(C(=O)[C@@H](C)C[C@H](C)[C@@H](Cl)CCl)c(O)c1OC [Atpenin A5]
Response: central band

Query: Categorize the following entry: CC(C)(c1ccc(OCC2CO2)cc1)c1ccc(OCC2CO2)cc1 (configuration not stated)
Response: central band

Query: Entry COC(=O)Nc1nc2ccccc2[nH]1 [Carbendazim] belongs to which category?
Response: lower band

Query: In plain terms, what class is N#C/C(=C\c1ccc(O)c(O)c1)C(N)=S [AG213 (Tyrphostin 47)] ?
Response: upper band

Query: Input CC(C)NCC(O)c1ccc(N)c(C#N)c1 (configuration not stated) [Cimaterol] ; output its category
Response: lower band

Query: The entry to classify is COC1=CC(=O)O[C@@H](CCc2ccc3c(c2)OCO3)C1 [Dihydromethylsticin] ; which class holds it?
Response: lower band

Query: For NCC1(CC(=O)O)CCCCC1 [Gabapentin] , which nuclear count per well bin applies?
Response: central band

Query: // return the class label for Nc1ccncc1 [4-Aminopyridine]
Response: lower band

Query: State the band of CC1(C)[C@@H](O)C[C@H]2[C@](C)(O)[C@@H]3CC[C@@H]4[C@@H](O)[C@@]3(C[C@@H](O)[C@@]21O)C[C@@]4(C)O [Grayanotoxin III]
Response: upper band

Query: Assign a category based on measured nuclear count per well for CN1C(=O)CC(=O)N(c2ccccc2)c2cc(Cl)ccc21 [Clobazam] and give only the class name.
Response: upper band

Query: Class label required: C=C1[C@@H](C)[C@H]2[C@H](Cc3ccccc3)NC(=O)[C@]23OC(=O)/C=C/[C@H](O)CCC[C@@H](C)C/C=C/[C@H]3[C@@H]1O [Cytochalasin B from Drechslera dematioidea]
Response: lower band

Query: Would you mind sorting C[C@H]1C(=O)O[C@@H]2CCN3CC=C(COC(=O)[C@](C)(O)[C@]1(C)O)[C@H]23 [Monocrotaline] into the appropriate category?
Response: upper band
